# credit: patent US20120270929A1

- Test system: murine TTC39C mRNA
- method.summary: Dose-dependent antisense inhibition of murine TTC39C in mouse primary hepatocytes
- Type: cell-based
- test.parameters: 4000.0 nM, electroporation, ~16 h
Oligonucleotides are written 5' to 3', each unit as a sugar letter and its base; * is a phosphorothioate linkage, no mark a phosphodiester; rarer units and linkages stand in square brackets, end groups in braces. Plain capitals give the bases only. e = 2'-O-(2-methoxyethyl) (MOE); [5mC] = 5-methylcytosine; d = 2'-deoxy (DNA)
Measured percent inhibition of TTC39C mRNA of individual entries

substance: ISIS 474654: 5-10-5 MOE gapmer antisense oligonucleotide targeting murine TTC39C (antisense eT*e[5mC]*eA*eG*e[5mC]*dT*dA*d[5mC]*dA*dG*dA*dA*d[5mC]*dG*d[5mC]*eA*eG*eG*eG*eT)
percent inhibition of TTC39C mRNA (%): 60
//
substance: ISIS 474615: 5-10-5 MOE gapmer antisense oligonucleotide targeting murine TTC39C (antisense eG*eT*eA*e[5mC]*eG*dA*dG*dT*dT*dA*d[5mC]*dT*d[5mC]*dT*dG*e[5mC]*e[5mC]*eG*eA*e[5mC])
percent inhibition of TTC39C mRNA (%): 92
//
substance: ISIS 474629: 5-10-5 MOE gapmer antisense oligonucleotide targeting murine TTC39C (antisense eG*eA*eT*e[5mC]*eA*d[5mC]*dT*dG*d[5mC]*d[5mC]*dG*dT*d[5mC]*d[5mC]*dA*eA*eA*eG*e[5mC]*eA)
percent inhibition of TTC39C mRNA (%): 48
//
substance: ISIS 474613: 5-10-5 MOE gapmer antisense oligonucleotide targeting murine TTC39C (antisense eT*eG*e[5mC]*eT*eT*dT*dA*dA*dT*d[5mC]*d[5mC]*dA*dA*d[5mC]*dG*eA*e[5mC]*eA*eG*eA)
percent inhibition of TTC39C mRNA (%): 65

* * *

- Tested on: murine TTC39B mRNA
- method.summary: Dose-dependent antisense inhibition of murine TTC39B in mouse primary hepatocytes (Example 2)
- Format: cell-based
- test.parameters: 200 nM, cytofectin, ~16 h
Oligonucleotides are written 5' to 3', each unit as a sugar letter and its base; * is a phosphorothioate linkage, no mark a phosphodiester; rarer units and linkages stand in square brackets, end groups in braces. Plain capitals give the bases only. e = 2'-O-(2-methoxyethyl) (MOE); [5mC] = 5-methylcytosine; d = 2'-deoxy (DNA)

monomer.sequence: GGACTGCCTGCCATGGGTGC (antisense eG*eG*eA*e[5mC]*eT*dG*d[5mC]*d[5mC]*dT*dG*d[5mC]*d[5mC]*dA*dT*dG*eG*eG*eT*eG*e[5mC]) [ISIS 447146]
percent inhibition of TTC39B mRNA (%): 89

monomer.sequence: GGTGGAGTCTGGCCCTCAGC (antisense eG*eG*eT*eG*eG*dA*dG*dT*d[5mC]*dT*dG*dG*d[5mC]*d[5mC]*d[5mC]*eT*e[5mC]*eA*eG*e[5mC]) [ISIS 447142]
percent inhibition of TTC39B mRNA (%): 91

monomer.sequence: GAGATCAGTTTCTGATGAAA (antisense eG*eA*eG*eA*eT*d[5mC]*dA*dG*dT*dT*dT*d[5mC]*dT*dG*dA*eT*eG*eA*eA*eA) [ISIS 447169]
percent inhibition of TTC39B mRNA (%): 81

* * *

- method.summary: Plasma glucose in C57BL/6 mice (glucose oxidase assay)
- Type: in vivo, mouse
- test.parameters: Week 6, 50 mg/kg/week
Oligonucleotides are written 5' to 3', each unit as a sugar letter and its base; * is a phosphorothioate linkage, no mark a phosphodiester; rarer units and linkages stand in square brackets, end groups in braces. Plain capitals give the bases only. e = 2'-O-(2-methoxyethyl) (MOE); [5mC] = 5-methylcytosine; d = 2'-deoxy (DNA)

monomer.sequence: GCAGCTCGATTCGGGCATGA (antisense eG*e[5mC]*eA*eG*e[5mC]*dT*d[5mC]*dG*dA*dT*dT*d[5mC]*dG*dG*dG*e[5mC]*eA*eT*eG*eA) [ISIS 447118]
glucose levels: 238 mg/dL
--
monomer.sequence: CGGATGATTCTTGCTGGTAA (antisense e[5mC]*eG*eG*eA*eT*dG*dA*dT*dT*d[5mC]*dT*dT*dG*d[5mC]*dT*eG*eG*eT*eA*eA) [ISIS 447114]
glucose levels: 232 mg/dL
--
monomer.sequence: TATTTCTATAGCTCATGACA (antisense eT*eA*eT*eT*eT*d[5mC]*dT*dA*dT*dA*dG*d[5mC]*dT*d[5mC]*dA*eT*eG*eA*e[5mC]*eA) [ISIS 447144]
glucose levels: 235 mg/dL
--
monomer.sequence: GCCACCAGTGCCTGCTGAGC (antisense eG*e[5mC]*e[5mC]*eA*e[5mC]*d[5mC]*dA*dG*dT*dG*d[5mC]*d[5mC]*dT*dG*d[5mC]*eT*eG*eA*eG*e[5mC]) [ISIS 447143]
glucose levels: 241 mg/dL

* * *

- System: murine TTC39C mRNA
- method.summary: Dose-dependent antisense inhibition of murine TTC39C in mouse primary hepatocytes
- Assay type: cell-based
- test.parameters: 2000.0 nM, electroporation, ~16 h
Oligonucleotides are written 5' to 3', each unit as a sugar letter and its base; * is a phosphorothioate linkage, no mark a phosphodiester; rarer units and linkages stand in square brackets, end groups in braces. Plain capitals give the bases only. e = 2'-O-(2-methoxyethyl) (MOE); [5mC] = 5-methylcytosine; d = 2'-deoxy (DNA)

substance: ISIS 474543: 5-10-5 MOE gapmer antisense oligonucleotide targeting murine TTC39C (antisense e[5mC]*e[5mC]*eA*eG*eG*dT*dG*dG*d[5mC]*dT*dT*dT*dG*dG*d[5mC]*eT*eT*eG*eG*eG)
percent inhibition of TTC39C mRNA / %: 88
//
substance: ISIS 474662: 5-10-5 MOE gapmer antisense oligonucleotide targeting murine TTC39C (antisense eG*eG*eA*eT*eT*dT*d[5mC]*d[5mC]*dG*dG*dG*d[5mC]*dA*dT*d[5mC]*eA*eA*e[5mC]*e[5mC]*eT)
percent inhibition of TTC39C mRNA / %: 65
//
substance: ISIS 474596: 5-10-5 MOE gapmer antisense oligonucleotide targeting murine TTC39C (antisense e[5mC]*eG*eA*eT*eT*dA*d[5mC]*dA*d[5mC]*d[5mC]*dA*dG*d[5mC]*d[5mC]*dT*e[5mC]*eT*eT*e[5mC]*eA)
percent inhibition of TTC39C mRNA / %: 62
//
substance: ISIS 474538: 5-10-5 MOE gapmer antisense oligonucleotide targeting murine TTC39C (antisense eT*eA*eG*e[5mC]*eA*d[5mC]*dG*d[5mC]*dA*dT*dA*dT*dG*dG*d[5mC]*eG*eG*eG*eA*e[5mC])
percent inhibition of TTC39C mRNA / %: 82

* * *

- Test system: murine TTC39C mRNA
- method.summary: Dose-dependent antisense inhibition of murine TTC39C in mouse primary hepatocytes
- Assay type: cell-based
- test.parameters: 2000.0 nM, electroporation, ~16 h
- Method: Thirty antisense oligonucleotides were selected from the study described in Example 8 and further tested at various doses in mouse primary hepatocytes. […] After a treatment period of approximately 16 hours, RNA was isolated from the cells and TTC39C mRNA levels were measured by quantitative real-time PCR. […] TTC39C mRNA levels were adjusted according to total RNA content, as measured by RIBOGREEN®. […]
Oligonucleotides are written 5' to 3', each unit as a sugar letter and its base; * is a phosphorothioate linkage, no mark a phosphodiester; rarer units and linkages stand in square brackets, end groups in braces. Plain capitals give the bases only. e = 2'-O-(2-methoxyethyl) (MOE); [5mC] = 5-methylcytosine; d = 2'-deoxy (DNA)
Measured percent inhibition of TTC39C mRNA of individual entries
assay.readout: percent inhibition of TTC39C mRNA (%)

substance: ISIS 474599: 5-10-5 MOE gapmer antisense oligonucleotide targeting murine TTC39C (antisense e[5mC]*eG*eT*eT*eG*dA*dT*dG*dT*d[5mC]*d[5mC]*dA*d[5mC]*dA*dT*eA*eG*e[5mC]*eA*e[5mC])
assay.readout: percent inhibition of TTC39C mRNA
obs.value: 60
//
substance: ISIS 474617: 5-10-5 MOE gapmer antisense oligonucleotide targeting murine TTC39C (antisense eA*eG*eT*eT*e[5mC]*d[5mC]*d[5mC]*dT*dT*dA*dG*dG*dG*dA*dG*eG*e[5mC]*e[5mC]*eA*eG)
assay.readout: percent inhibition of TTC39C mRNA
obs.value: 80
//
substance: ISIS 474521: 5-10-5 MOE gapmer antisense oligonucleotide targeting murine TTC39C (antisense eG*eG*e[5mC]*eT*eT*dT*d[5mC]*d[5mC]*dT*dA*dA*dG*dG*dA*dT*e[5mC]*e[5mC]*eA*e[5mC]*e[5mC])
assay.readout: percent inhibition of TTC39C mRNA
obs.value: 84
//
substance: ISIS 474595: 5-10-5 MOE gapmer antisense oligonucleotide targeting murine TTC39C (antisense eG*eT*e[5mC]*eA*eT*d[5mC]*dG*d[5mC]*dA*d[5mC]*dG*d[5mC]*d[5mC]*dA*dA*e[5mC]*eT*eG*e[5mC]*eA)
assay.readout: percent inhibition of TTC39C mRNA
obs.value: 95
